biological target: 53BP1 Tudor Y1500A (H. sapiens, UniProt Q12888 1484-1603, Y1500A); assay: ITC
Sequence (Q12888 other isoform, or with tags, fused parts or gaps Y1500A | Y1500A): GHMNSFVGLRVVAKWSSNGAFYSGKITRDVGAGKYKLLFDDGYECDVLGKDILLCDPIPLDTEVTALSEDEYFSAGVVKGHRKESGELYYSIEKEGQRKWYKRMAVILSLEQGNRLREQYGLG
Where no end group is shown, it is not given here. Me2 = dimethyl-lysine

# binder, unit spec, Kd
data = [
    ("KRHRK(Me2)VLRDN [H4K20me2]", "µM", 163),
]
